- target.entity: Pdr3 (UniProt P33200)
- Sequence: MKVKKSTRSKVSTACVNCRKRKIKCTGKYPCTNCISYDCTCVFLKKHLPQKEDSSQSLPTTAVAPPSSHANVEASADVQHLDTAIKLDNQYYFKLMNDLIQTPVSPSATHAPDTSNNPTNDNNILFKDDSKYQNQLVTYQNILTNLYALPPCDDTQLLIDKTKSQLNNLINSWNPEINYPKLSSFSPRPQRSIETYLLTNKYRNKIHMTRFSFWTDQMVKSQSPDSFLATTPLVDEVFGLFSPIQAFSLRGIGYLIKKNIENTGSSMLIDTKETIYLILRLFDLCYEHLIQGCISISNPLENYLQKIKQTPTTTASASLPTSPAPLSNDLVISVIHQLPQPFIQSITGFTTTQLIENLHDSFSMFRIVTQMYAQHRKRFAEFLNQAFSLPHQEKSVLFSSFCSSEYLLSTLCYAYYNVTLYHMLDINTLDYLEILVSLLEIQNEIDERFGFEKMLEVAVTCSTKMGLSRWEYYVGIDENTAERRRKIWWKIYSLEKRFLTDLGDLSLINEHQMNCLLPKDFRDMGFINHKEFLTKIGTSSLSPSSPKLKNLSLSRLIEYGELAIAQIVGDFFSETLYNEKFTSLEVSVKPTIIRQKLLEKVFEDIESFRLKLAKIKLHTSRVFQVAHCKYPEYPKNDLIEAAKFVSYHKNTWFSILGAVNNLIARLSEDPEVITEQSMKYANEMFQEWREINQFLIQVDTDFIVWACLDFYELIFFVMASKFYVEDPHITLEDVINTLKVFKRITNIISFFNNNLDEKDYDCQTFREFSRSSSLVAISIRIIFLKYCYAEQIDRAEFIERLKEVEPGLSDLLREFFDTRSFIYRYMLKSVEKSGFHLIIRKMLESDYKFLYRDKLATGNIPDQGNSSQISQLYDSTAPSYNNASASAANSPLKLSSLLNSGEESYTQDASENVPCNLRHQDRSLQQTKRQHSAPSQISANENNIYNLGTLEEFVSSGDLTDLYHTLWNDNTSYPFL
- assay.name: PBM E-score (8-mer binding enrichment) (E-score (-0.5 to 0.5)); higher = stronger / more preferred TF binding
- experimental.conditions: protein concentration: 200 nM; construct: GST-full length
The full ranking holds about 33,000 sequences; the median of “E-score (-0.5 to 0.5)” is about -0.035, and the highest 2% start at about 0.35. This is one part of a sample in which the highest values are shown more often than they occur.
Each entry gets no if its PBM E-score stays under -0.07, and yes if its PBM E-score is -0.07 or above.

monomer.sequence: CGCTTCCC
target.entity: Pdr3 (UniProt P33200)
class.assignment: yes
//
monomer.sequence: AGATTCCC
target.entity: Pdr3 (UniProt P33200)
class.assignment: yes
//
monomer.sequence: GCTTTAGA
target.entity: Pdr3 (UniProt P33200)
class.assignment: no
//
monomer.sequence: CGATTCCC
target.entity: Pdr3 (UniProt P33200)
class.assignment: yes
//
monomer.sequence: AAGCGAAG
target.entity: Pdr3 (UniProt P33200)
class.assignment: no
//
monomer.sequence: ACCCATCA
target.entity: Pdr3 (UniProt P33200)
class.assignment: no
//
monomer.sequence: ATTGTTCG
target.entity: Pdr3 (UniProt P33200)
class.assignment: yes
//
monomer.sequence: CCGGCAGC
target.entity: Pdr3 (UniProt P33200)
class.assignment: yes

Given CCGGCAGG , state whether its PBM E-score is at least -0.07. yes

Quick one: CCCGTTCC yes

Quick one: CCGGCACC yes

Quick one: CAAACCGA no

Quick one: ATTGGGCA no

Quick one: ATGGTTCC yes

Quick one: TAGTCCCA no

Quick one: TATTCTAA yes
